Listed next: entries and their corresponding apparent KD of MS2 coat protein.
- System: MS2 coat protein
- PROTOCOL_TEXT: apparent KD of MS2 coat protein; designed switch direction (-1 OFF switch, 1 ON switch): -1; higher = weaker reporter binding
- CONDITION_NOTES: Eterna round: R95; input ligand: none
Unit nM implied. Number only.

# SEQUENCE_CONTENT, apparent KD of MS2 coat protein [nM]
records = [
    ("GGUCAAGAACAGCUCCGCGCUGCCCUCGACCGCUCAUUUACAUGAGGAUCACCCAUGUUUUUUGCUUGUCUUGUUAC [Usvetive] (puzzle: Sensor v3, turn-off variant 2)", 16.5),
]

Incoming: So what does the record say about apparent KD of MS2 coat protein for GUCCUCAUGACGCCUAAACACAUGAGGAUCACCCAUGUACAGGCUUUUUGUCGUCUUAUAAUAAAACCGAGGAUGCG [Xelaanen] (puzzle: Sensor v3, turn-off variant 1) ?
Outgoing: 29.8

Incoming: For AAGUACUACAAGCUUAGGGACAUGAGGAUCACCCAUGUUCGUCUUAUUGAUCUAGGUACGCUGACGUACCUAGAUCA [Mat - Sensor v3 - turn-off var 1 - JL Mod - D10] (puzzle: Sensor v3, turn-off variant 1) , what is its reported apparent KD of MS2 coat protein?
Outgoing: 15.5

Incoming: Reported apparent KD of MS2 coat protein for CAAAAGCUAGGAUAUUGAGGUGGGCACAUGAGGAUCACCCAUGUGGACCUCGAGCCUACGCAAGAAGGAGUAAAAU [Rioren] (puzzle: Exclusion 5) : what is it?
Outgoing: 17

Incoming: Given the entry GGUCCACAUGAGGAUCACCCAUGUUAGGAUAUCUCCUGCCUCCUCACUGGAGGCAGACAGAGAAGGAACAUCAA [Eratxe] (puzzle: Exclusion 1) , report its measured apparent KD of MS2 coat protein.
Outgoing: 23.9

----------
- System: K4 kissing-loop RNA reporter;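 further: bound reporter read as fluorescence of individual clusters on recovered sequencing chips by microscopy, with normalized cluster intensities fitted with a binding model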
- PROTOCOL_TEXT: apparent KD of K4 kissing-loop reporter; higher = weaker reporter binding
- CONDITION_NOTES: Eterna round: R107; input ligand: FMN 200 uM
Measured apparent KD of K4 kissing-loop reporter of individual entries
Record the value in nM, omitting the unit from your answer.

# SEQUENCE_CONTENT, REPORTED_METRIC, REPORTED_RESULT
rows = [
    ("GUCUCCGUCGAUGAUACCAGUCGAUGUACGUCAGGUACCCUUUGAGUGAUGUUCAGAUUAGACCCUUGGCAGCAUAUCGAGGCUC [theeternabot_exclusion_KL_Theo_B_24]", "apparent KD of K4 kissing-loop reporter", 370),
    ("UGUCAUUGGUCGGCCGCCACUAGGACCGGGUAUAACCUAGUGAUGUUAGUAAAUACGGCCGCCACUAGGACCGGGACCGAUGACU [KL-SSTryp-B18 #DoubleAptamer]", "apparent KD of K4 kissing-loop reporter", 415),
    ("GGGUGGCAGGCGGCCGCCACUCUGAGGGUCCACAGUGAUGUUGUGGGCGCGUAAGCGUCUUCAUAGAGGACCGGGUUUGUUGUUC [Same State Tryptophan B GF 24]", "apparent KD of K4 kissing-loop reporter", 422),
    ("CACCAUGAAUUCUCUAGGAGUGAUGUUUUUCGAGGACCGGUACGGCCGCCACUCGGACCAGGAACGUGGGAGCGGCGAAAAGACU [ttmullin]", "apparent KD of K4 kissing-loop reporter", 656),
    ("GGUUUAUAGGAGGAUACCAGUACAAAUAAAGUACAUUAAUAGUAGAGUGAUGUUCUAAAGUACCCUUGGCAGCUUAGAUUAAGUU [ExTheophylB.G]", "apparent KD of K4 kissing-loop reporter", 92.6),
]

Incoming: // returns reported apparent KD of K4 kissing-loop reporter for input UGUCAUUGGUCGGCCGCCACUAGGACCGGGAUUUUUCUAGUGAUGUUAGUUUGGUCGGCCGCCACUAGGACCGGGACCGAUGACU [KL-SSTryp-B13 #DoubleAptamer]
Outgoing: 638

Incoming: What value of apparent KD of K4 kissing-loop reporter has been reported for the following sequence? GGGCAUGUUAAAGGAUAUAGCAGGUGAUACAAGAAAGUGAGUGAUGUUUAUGUAGAUGAUGAUAUGUUAGAAGGUUAACAAAACC [abcdefghijklm]
Outgoing: 597

Incoming: Request the reported apparent KD of K4 kissing-loop reporter associated with UGUAUGUGAUUUGAUACCAGACAAGCAGGUGUGACAAGAGUGAUGUUCUUGAUGGUUUGGGUCCCUUGGCAGCAAAUCGCAUACU [KL-SSTheoB16]
Outgoing: 194

Incoming: Which apparent KD of K4 kissing-loop reporter value is on record for CGCAAUCGAACUGAUACCAGUCAUAAUGGCUGAGAAGCACGAGUGAUGUUCGUAACGAAUGACCCUUGGCAGCAGUUCGAUUGCG [Theo B SS t8] ?
Outgoing: 706

Incoming: Please look up its apparent KD of K4 kissing-loop reporter: "GUUAUAUAAAUAAGAAAUAAAAUAAGGGAAGGAGCGCCGAGAAAGGCAGGUAGGUCGCCCAGUGAUGUUGGGAUUAAUUAAUUAG"
Outgoing: 45
